- System: PPARg homodimer (NR concentration 180 nM)
- ASSAY_COMMENT: PBM binding z-score (relative to random genomic background probes); higher = stronger binding; sequences stand for … in GC…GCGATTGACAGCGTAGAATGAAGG
PBM binding z-score listing for selected sequences.
Write no unit; give the number alone.

These recorded examples may help you get a feel for the data.
1. ACTAGTTGGTCAGCTGAGGTCCCACACAATTCGG    0.419
2. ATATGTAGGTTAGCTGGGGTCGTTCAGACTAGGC    0.751
3. TCTTGTAGATCAACAGGAGGTTACGAAAGATCGA    0.494
4. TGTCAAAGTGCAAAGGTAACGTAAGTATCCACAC    1.09
5. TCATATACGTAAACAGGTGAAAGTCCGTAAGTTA    1.24
6. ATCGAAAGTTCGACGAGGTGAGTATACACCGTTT    0.996
7. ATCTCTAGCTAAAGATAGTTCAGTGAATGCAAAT    0.538
8. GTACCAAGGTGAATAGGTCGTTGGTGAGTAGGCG    0.877
9. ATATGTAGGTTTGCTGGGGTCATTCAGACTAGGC    1.83
10. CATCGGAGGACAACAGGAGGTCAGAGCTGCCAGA    1.51

Prompt: Give PBM binding z-score (PPARg homodimer (NR concentration 180 nM)) of the following sequence: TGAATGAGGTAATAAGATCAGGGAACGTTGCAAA
Response: -0.59

Prompt: Give PBM binding z-score (PPARg homodimer (NR concentration 180 nM)) of the following sequence: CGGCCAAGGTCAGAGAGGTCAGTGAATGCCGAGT
Response: 3.78

Prompt: Give PBM binding z-score (PPARg homodimer (NR concentration 180 nM)) of the following sequence: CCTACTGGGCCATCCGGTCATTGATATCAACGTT
Response: 0.811

Prompt: Give PBM binding z-score (PPARg homodimer (NR concentration 180 nM)) of the following sequence: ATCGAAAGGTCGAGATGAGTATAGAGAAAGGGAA
Response: 1.05

Prompt: Give PBM binding z-score (PPARg homodimer (NR concentration 180 nM)) of the following sequence: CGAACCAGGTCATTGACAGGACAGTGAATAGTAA
Response: 1.32
